B1: Membrane-associated guanylate kinase, WW and PDZ domain-containing protein 1, residues 352 to 401; numbered along this chain, Q96QZ7 (parent)
chain: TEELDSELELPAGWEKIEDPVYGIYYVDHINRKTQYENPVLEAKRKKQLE

variants of: B1; assay: abundance fitness (aPCA) (normalised: wild type 0, dead -1); higher = more abundant; growth selection in yeast, the domain comes from the species named; settings: Homo sapiens
// bucketize abundance fitness: low = under -0.4, medium = from -0.4 up to -0.1, high = -0.1 and over

Examples with answers:
P39Y = low
A12M = low

Into which category would you place L10Y ? low

Into which category would you place E15M ? medium

Into which category would you place L41G ? high

Into which category would you place Y25N ? low

Into which category would you place Y26L ? low

Into which category would you place E50R ? low

Into which category would you place Y25C ? medium

Into which category would you place S6V ? high

Into which category would you place D19C ? high

Into which category would you place L10M ? medium

Into which category would you place T34W ? medium

Into which category would you place A43F ? medium

Into which category would you place Y36H ? high

Ref: the Human Domainome abundance scans (Beltran et al. 2025)
